Item-by-item account of pKd
- target-of-assay: T1, recombinant human TfR1 (transferrin receptor 1) (human, UniProt P02786 89-760)
- T1 construct: Bought recombinant His-tagged protein; also called hTfR1
- T1 sequence (P02786 89-760 limits assumed): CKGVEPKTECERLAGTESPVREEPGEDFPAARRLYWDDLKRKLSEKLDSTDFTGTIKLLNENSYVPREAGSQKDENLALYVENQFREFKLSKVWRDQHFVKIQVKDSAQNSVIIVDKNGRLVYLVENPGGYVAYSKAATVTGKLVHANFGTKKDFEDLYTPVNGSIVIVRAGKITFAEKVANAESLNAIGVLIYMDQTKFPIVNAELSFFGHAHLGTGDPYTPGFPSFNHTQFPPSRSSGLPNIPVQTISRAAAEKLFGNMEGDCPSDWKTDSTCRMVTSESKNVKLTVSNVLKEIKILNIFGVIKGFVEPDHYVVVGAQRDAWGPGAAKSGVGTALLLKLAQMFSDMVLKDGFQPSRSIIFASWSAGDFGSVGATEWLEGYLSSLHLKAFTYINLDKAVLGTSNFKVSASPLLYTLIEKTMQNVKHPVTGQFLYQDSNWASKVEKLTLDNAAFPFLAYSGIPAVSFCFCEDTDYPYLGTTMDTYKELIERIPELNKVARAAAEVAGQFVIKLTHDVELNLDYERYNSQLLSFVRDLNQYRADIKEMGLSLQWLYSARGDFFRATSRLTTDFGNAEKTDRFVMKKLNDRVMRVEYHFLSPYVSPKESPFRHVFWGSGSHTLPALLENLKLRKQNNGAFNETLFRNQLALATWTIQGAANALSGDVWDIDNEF
- experiment: SPR (Biacore), single-cycle kinetics, His-tagged TfR1 captured, VNAR-Fc injected
- Experimental: Binding kinetics of VNAR-Fcs was determined by surface plasmon resonance (Biacore T200, GE Healthcare). CM5 chips were coated with anti-His antibodies (His Capture Kit, GE Healthcare) as recommended by the manufacturer and human or mouse his-tagged TfR1 (SinoBiological) at 10 ug/mL in HBS-EP+ (GE Healthcare) was captured at flow rate 10 ul/min (contact time 120 s). […] Sensorgrams were fitted and kinetic constants were determined using Biacore T200 Evaluation software. […]
pKd: −log10 of the molar value.
property: pKd

binder	experimental-value
Clone 39 VNAR-Fc fusion protein (Fc fusion, Bivalent VNAR-Fc; not shown: glycine/serine linker (GxSx)n extending the hinge; human IgG1 Fc (hinge, CH2, CH3) of pFUSE-hIgG1e3-Fc2; G236 also deleted) ARVDQTPQTITKETGESLTINCVLRDSNCALSSTLWYRTKSGSRNEESISKGGRYVETVNSGSKSFSLKINDLTVEDSGTYRCNVQGMVYDGSSFWWCDVYGDSTAVTVNA	8.14
Clone 10 VNAR-Fc fusion protein (Fc fusion, Bivalent VNAR-Fc; also called clone 10-Fc; Clone 10-hFc; not shown: glycine/serine linker (GxSx)n extending the hinge; human IgG1 Fc (hinge, CH2, CH3) of pFUSE-hIgG1e3-Fc2; G236 also deleted) ARVDQTPQTITKETGESLTINCVLRDSNCALSSTYWYRKKSGSTNEENISKGGRYVETVNSGSKSFSLRINDLTVEDSGTYRCNVVQYPSYNNYFWCDVYGDGTAVTVNA	9.28
Clone 1 VNAR-Fc fusion protein (Fc fusion, Bivalent VNAR-Fc; also called clone 1-Fc; not shown: glycine/serine linker (GxSx)n extending the hinge; human IgG1 Fc (hinge, CH2, CH3) of pFUSE-hIgG1e3-Fc2; G236 also deleted) ARVDQTPQTITKETGESLTINCVLRDNNCALSTTYWYRKKSGSTNEENISKGGRYVETVNSGSKSFSLKINDLTVEDSGTYRCNVRDVQACGNDWVWLDVYGGGTVVTVNA	8.73
Clone 2 VNAR-Fc fusion protein (Fc fusion, Bivalent VNAR-Fc; not shown: glycine/serine linker (GxSx)n extending the hinge; human IgG1 Fc (hinge, CH2, CH3) of pFUSE-hIgG1e3-Fc2; G236 also deleted) ARVDQTPQTITKETGESLTINCVLRDNNCALSTTYWYRKKSGSTNEENISKGGRYVETVNSGSKSFSLKINDLTVEDSGTYRCNVFGVDNGWWCDVYGGGTVVTVNA	8.63
